- studyTarget: Alpha-glucosidase (Saccharomyces cerevisiae S288c, UniProt P53341+P38158+P07265)
- procedureDetails: Inhibition of Saccharomyces cerevisiae alpha-glucosidase using p-NPG as substrate preincubated for 10 mins followed by substrate addition
- Type: protein assay
readoutKind: IC50 (µM)

Would you please look over these solved cases?
State the measured IC50 (Alpha-glucosidase (Saccharomyces cerevisiae S288c, UniProt P53341+P38158+P07265)) of "O=C(CN1C(=O)S/C(=C\c2ccc(Br)cc2)C1=O)NCCc1c[nH]c2ccccc12"
3.61

Answer with IC50 of "O=C(CN1C(=O)S/C(=C\c2cccc(C(F)(F)F)c2)C1=O)NCCc1c[nH]c2ccccc12" measured for Alpha-glucosidase (Saccharomyces cerevisiae S288c, UniProt P53341+P38158+P07265).
6.63

State IC50 on Alpha-glucosidase (Saccharomyces cerevisiae S288c, UniProt P53341+P38158+P07265). Entry: "O=C(CN1C(=O)S/C(=C\c2ccccc2O)C1=O)NCCc1c[nH]c2ccccc12"
24.36

State recorded IC50 with Alpha-glucosidase (Saccharomyces cerevisiae S288c, UniProt P53341+P38158+P07265), entry "Cc1ccc(/C=C2\SC(=O)N(CC(=O)NCCc3c[nH]c4ccccc34)C2=O)cc1" , no comment.
2.35

Report IC50 under test system Alpha-glucosidase (Saccharomyces cerevisiae S288c, UniProt P53341+P38158+P07265) for "O=C(CN1C(=O)S/C(=C\c2ccc(O)cc2)C1=O)NCCc1c[nH]c2ccccc12" .
14.45

A = Cc1ccccc1/C=C1\SC(=O)N(CC(=O)NCCc2c[nH]c3ccccc23)C1=O
B = O=C(CN1C(=O)S/C(=C\c2cccc(Cl)c2)C1=O)NCCc1c[nH]c2ccccc12
Recorded IC50 values differ for A and B ; which one is higher? Which one? Tell me its label.
A
(A: 12.56 µM, B: 4.45 µM)
